Molecular target: G-protein coupled receptor 39 (Homo sapiens, UniProt O43194)
Sequence (O43194 whole entry): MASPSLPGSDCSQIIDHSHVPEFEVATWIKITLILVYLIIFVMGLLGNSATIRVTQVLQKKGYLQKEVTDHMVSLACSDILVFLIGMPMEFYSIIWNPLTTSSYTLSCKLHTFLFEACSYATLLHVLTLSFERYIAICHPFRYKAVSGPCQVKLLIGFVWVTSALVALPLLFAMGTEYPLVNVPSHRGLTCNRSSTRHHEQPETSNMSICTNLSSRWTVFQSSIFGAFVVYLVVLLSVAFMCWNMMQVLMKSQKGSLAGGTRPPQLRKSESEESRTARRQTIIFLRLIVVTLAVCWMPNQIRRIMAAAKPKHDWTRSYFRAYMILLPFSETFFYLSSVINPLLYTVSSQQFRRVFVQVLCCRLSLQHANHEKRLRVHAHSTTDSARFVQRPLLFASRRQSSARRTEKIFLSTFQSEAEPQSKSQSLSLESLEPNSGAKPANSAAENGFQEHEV
Test: Agonist activity at human GPR39 expressed in HEK293 cells co-expressing Galphaq assessed as myo-[2-3H]inositol phosphate accumulation in presence of 10 uM Zn2+ measured after 75 mins by scintillation proximity assay
Type: functional, cell-based
Below, each entry is listed with its recorded EC50.
Numeric answer only, unit nM assumed.

compound	unit.of.measure	EC50
CCCCCCCCOC1CC(=O)Nc2c1c(C)nn2-c1ncnc2nc[nH]c12 (stereo not given)	nM	8
Cc1cc(C)n(CCOC2CC(=O)Nc3c2c(C)nn3-c2ncnc3nc[nH]c23)n1 (stereo not given)	nM	16
CCC(C(=O)NC1CC(=O)Nc2c1c(C)nn2-c1ncnc2nc[nH]c12)c1ccccc1 (stereo not given)	nM	5
OCC(O)/C=N/Nc1nc(Nc2ccccc2)nc(Nc2ccccc2)n1 (stereo not given)	nM	750
Cc1nn(-c2ncnc3nc[nH]c23)c2c1C(c1ccc(OC(C)C)cc1)CC(=O)N2 (stereo not given)	nM	18
CC(C)(C)c1cc(C(=O)N/N=C/c2ccc(O)cc2O)[nH]n1	nM	240

Quick one: EC50 for Cc1nn(-c2ncnc3nc[nH]c23)c2c1C(OCCn1nccc1C)CC(=O)N2 (stereo not given) ?
10

Next compound: Cc1nn(-c2ncnc3nc[nH]c23)c2c1C(OCC(C)C)CC(=O)N2 (stereo not given)
4

Also, Cc1nn(-c2ncnc3nc[nH]c23)c2c1C(OCc1ccccc1Cl)CC(=O)N2 (stereo not given) please.
2

Consider next the compound Cc1nn(-c2ncnc3nc[nH]c23)c2c1C(c1ccc(F)cc1Cl)CC(=O)N2 (stereo not given) in the same way.
9
